Data origin: PubChem BioAssay (NCI)

# Test system: HS 578T breast
# experiment-description: NCI-60 one-dose screen, 48 h (100 = growth as untreated, 0 = no growth, -100 = all killed)
# measurement-context: 10 µM unless noted
Compounds without any hit were thinned out: in the full panel of roughly 83,000, 20% have a hit.
measured-quantity: growth (%)
# unit: % | format: bare number

| compound | unit-of-measurement | data-value |
| --- | --- | --- |
| COC(=O)C(N)CC(C)C (stereo not given) | % | 111 |

Reading of growth for CCCCCCCCCCCCCCCCCC1=NCCN1CCNC(C)=O with HS 578T breast: 110

Reading of growth for O=C(O)c1ccc(-c2nn(-c3ccc(C(=O)O)cc3)cc2CNc2ccc(Br)cc2)cc1 with HS 578T breast: 107

Reading of growth for CC(O)C(N)=O (stereo not given) with HS 578T breast: 108

Reading of growth for OCCN1CCN(CC/C=C2/c3ccccc3Sc3ccc(C(F)(F)F)cc32)CC1 with HS 578T breast: 67.7

Reading of growth for CCCCCCCCCCN1CC2CCCCC2C1 (stereo not given) with HS 578T breast: 84.4

Reading of growth for COc1ccccc1Cn1cc2c(c1)-c1oncc1CC2 with HS 578T breast: 8.86

Reading of growth for CCC(C)C1NC(=O)C(CCCCN)NC(=O)C(CCCCN)NC(=O)C(CC(C)C)NC(=O)C(CCCCN)NC(=O)C(C(C)CC)NC(=O)C(C(C)C)NC(=O)C(C(C)CC)NC(=O)C(CCCCN)NC(=O)C(CCCCN)NC(=O)C(C)NC(=O)C(CCCCN)NC(=O)C(CC(C)C)NC1=O (stereo not given) with HS 578T breast: 53

Reading of growth for Cc1c(C(N)=O)sc2c1c(=O)n(Cc1ccccc1)c1nnc(S(C)(=O)=O)n21 with HS 578T breast: 87.5

Reading of growth for CC1(C)CC(=O)C2=C(C1)Oc1nc(N)c(C#N)c(N)c1C2c1ccc(F)cc1 (stereo not given) with HS 578T breast: 103

----------
# Test system: SF-295 CNS
# experiment-description: NCI-60 one-dose screen, 48 h
# measurement-context: 10 µM unless noted
The panel holds about 83,000 compounds, 20% with a hit somewhere; the sample as a whole holds those more often. Active and inactive are the calls of the source. The calls were made as follows: active = growth percent below 10; inactive = the rest.
Classes to choose from: label 1 (active), label 0 (inactive)

| molecule | measured-on | assigned-label |
| --- | --- | --- |
| CC1(C)NC(=S)NC1=O | SF-295 CNS | label 0 |
| O=C1Nc2c(c(=O)n(-c3ccccc3)c3ccccc23)C(c2ccc(Cl)cc2)N1 (configuration not stated) | SF-295 CNS | label 0 |

Please state the recorded outcome for this molecule: COc1cc(N2C(=O)C=CC2=O)ccc1N1C(=O)C=CC1=O
label 0

Please state the recorded outcome for this molecule: O=C(Nc1cccc(Cn2c(=O)[nH]c3ccc(Oc4ncccn4)cc3c2=O)c1)c1cc(Cl)cc(Cl)c1
label 0

Please state the recorded outcome for this molecule: CC(=O)Nc1ccc(C(=O)/C=C/c2ccc(N(C)C)cc2)cc1
label 0

----------
# Tested on: SF-539 CNS
# experiment-description: NCI-60 one-dose screen, 48 h
# measurement-context: 10 µM unless noted
Compounds without any hit were thinned out: in the full panel of roughly 83,000, 20% have a hit. Calls of active or inactive are those of the source. How the source made its calls: active means growth percent below 10; inactive means the rest.
Classes to choose from: 1 for active, 0 for inactive

Reference set (2 entries):
| compound | measured-on | assigned-label |
| --- | --- | --- |
| O=C1CCNC1 | SF-539 CNS | 0 |
| CNCCCNCCCCNCCCN1C(=O)c2ccc3c4c(ccc(c24)C1=O)C(=O)N(CCCNCc1ccccc1OC)C3=O | SF-539 CNS | 0 |

Please state the recorded outcome for this compound: CC#Cc1nc(Nc2cc(C)[nH]n2)c2ccccc2n1
1

Please state the recorded outcome for this compound: Nc1nc2c(c3cnccc13)C(c1cccc(Br)c1)Cc1cnccc1-2 (stereo not drawn)
1

Please state the recorded outcome for this compound: COc1cc(NC(=O)CSc2nc3ccc(Cl)cc3c(=O)n2-c2ccc(F)cc2)cc(OC)c1OC
0

Please state the recorded outcome for this compound: Clc1ccc(I)c2ccccc12
0

Please state the recorded outcome for this compound: O=C1NCCN1/N=C/c1c(Cl)nc2n1CCS2
0

Please state the recorded outcome for this compound: Cc1cc2cn3c4ccc(O)cc4[nH]c(=O)c3c2cc1C
0

Please state the recorded outcome for this compound: O=c1c(N=Nc2nccs2)c(-c2ccccc2)[nH]n1-c1nc(-c2ccccc2)cs1
0

Please state the recorded outcome for this compound: CC[C@H](Nc1ncnc2nc[nH]c12)c1nc2cccc(NCc3ccc(C(=O)NO)o3)c2c(=O)n1-c1ccccc1
0

Please state the recorded outcome for this compound: CCCCN(CCCC)c1ccc(C(=O)O)cc1
0
